// values below are reported Kd
TEST TARGET: T1, human CD3 epsilon (human, UniProt P07766)
T1 chain: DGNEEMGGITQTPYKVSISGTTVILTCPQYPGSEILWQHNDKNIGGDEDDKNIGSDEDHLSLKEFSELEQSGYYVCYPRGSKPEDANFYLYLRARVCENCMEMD
PROTOCOL SUMMARY: SPR
ENDPOINT NAME: Kd (nM)

• 15H2L2 (antibody, V domains shown) VH: EVQLLESGGGLVQPGGSLRLSCAASGFTFNTYAMNWVRQAPGKGLEWVARIRSKYNNYATYYAISVKDRFTISRDNSKNTLYLQMNSLRAEDTAVYYCVKHGNFGNSYLSYWAYWGQGTLVTVSS VL: QTVVTQEPSLTVSPGGTVTLTCQSSTGAVTTNNYANWVQQKPGQAPRALIGGTKQRAPGTPARFSGSLLGGKAALTLSGVQPEDEAEYYCVLWYSNLWVFGGGTKLTVL = 0.516
• 26H3L3 (antibody, V domains shown) VH: EVQLLESGGGLVQPGGSLRLSCAASGFTFNTYAMNWVRQAPGKGLEWVARIRSKYNNYATYYADSVKDRFTISRDDSKNTLYLQMNSLRAEDTAMYYCVRHGNFGNSYISWWAYWGQGTLVTVSS VL: QAVVTQEPSLTVSPGGTVTLTCKSSTGAVTTSNYANWVQQKPGHAFRGLIGGTNLHAPGVPARFSGSLLGGKAALTLSGVQPEDEAEYYCALWYSNLWVFGGGTKLTVL = 0.864
• 15H3L3 (antibody, V domains shown) VH: EVQLLESGGGLVQPGGSLRLSCAASGFTFNTYAMNWVRQAPGKGLEWVARIRSKYNNYATYYAISVKDRFTISRDDSKNTLYLQMNSLRAEDTAMYYCVRHGNFGNSYLSYWAYWGQGTLVTVSS VL: QAVVTQEPSLTVSPGGTVTLTCQSSTGAVTTNNYANWVQQKPGHAFRGLIGGTKQRAPGVPARFSGSLLGGKAALTLSGVQPEDEAEYYCVLWYSNLWVFGGGTKLTVL = 0.0967
